experiment_notes: Confirmation screen for delayed death inhibitors of the malarial parasite plastid, 48 hour incubation; also: nearly all actives have a fitted effect of over 65% in size
test_settings: P. falciparum-infected erythrocytes, luciferase growth; series mostly up to 28.7 µM
The campaign covered roughly 2,300 compounds. About 1,200 (52%) were called active. Roughly 34% stayed inconclusive and do not appear here. Calls follow the shape of the dose curve; as a rule, active = well fitted inhibition curve with a large enough effect; inconclusive = small, poorly fitted or top-dose-only effect, or effect the other way; inactive = no such curve, though single readings can be large or run the other way. So high a share suggests a set chosen from earlier hits. The list shows a part of the results.
Tick one outcome: yes = active, no = inactive

molecule	group
CCCc1c(NC(=O)Nc2ccc(F)cc2)cnn1-c1ccccc1	yes

Lab note: next molecule to report on.
Please state the recorded outcome for this molecule: CCCSc1nc2c(cnn2-c2ccccc2)c(=O)[nH]1
no

* * *

experiment_notes: Confirmation screen for delayed death inhibitors of the malarial parasite plastid, 48 hour incubation; also: nearly all actives have a fitted effect of over 65% in size; also: potency is read from the fitted curve at half-maximal effect
test_settings: P. falciparum-infected erythrocytes, luciferase growth; series mostly up to 28.7 µM
The campaign covered roughly 2,300 compounds. About 1,200 (52%) were called active. Another 34% or so got no clear call; they are omitted. The set was probably picked from earlier hits. The list shows a part of the results.
property_label: Potency

// worked examples, Potency included
molecule	property_label	measured
CC1CCC(NC(=O)CN(C)S(=O)(=O)c2ccc3c(c2)c(=O)n(C)c(=O)n3C)CC1 (stereo unspecified)	Potency	10 µM (active)
Fc1ccc(Nc2nc(N3CCOCC3)nc(N3CCOCC3)n2)cc1	Potency	14.1 µM (active)
CC1CN(C(=O)N2c3ccccc3Sc3ccccc32)CC(C)O1 (stereo unspecified)	Potency	14.1 µM (active)
COc1ccc(C(=O)/C=C/c2cccnc2)c(OC)c1	Potency	7.94 µM (active)
CCCCC1(c2ccc(F)cc2)NC(=O)N(CC(=O)N2CCN(C(=O)c3ccco3)CC2)C1=O (stereo unspecified)	Potency	14.1 µM (active)
Cc1cccc(N2CCN(C(=O)C3CCN(c4ncnc5c4nc4n5CCCCC4)CC3)CC2)c1C	Potency	14.1 µM (active)
CSc1ccccc1OCc1cc(C(=O)NCCCn2nc(C)cc2C)no1	Potency	15.8 µM (active)
O=C(C1CCC1)N1CCc2cc(S(=O)(=O)NCc3ccco3)ccc21	Potency	inactive
Cc1ccc(-c2nnc(N3CCOCC3)c3ccccc23)cc1S(=O)(=O)NCC1CCCO1 (stereo unspecified)	Potency	7.08 µM (active)
COc1cc2cc[n+](Cc3ccc([N+](=O)[O-])cc3)cc2cc1OC	Potency	5.01 µM (active)

Look up Potency of Brc1ccccc1-c1nnc(COc2ncnc3c2cnn3-c2ccccc2)o1 and report it.
inactive

Look up Potency of CC#CC#Cc1cccc(=O)o1 and report it.
8.91 µM (active)

Look up Potency of CC(C)C[C@H](NC(=O)c1[nH]cnc1C(=O)N[C@@H](C)C(=O)OC(C)(C)C)C(=O)OC(C)(C)C and report it.
7.08 µM (active)

Look up Potency of COc1ccc(N(C)S(=O)(=O)c2cccc(C(=O)NCc3ccc(C)cc3)c2)cc1 and report it.
12.6 µM (active)

Look up Potency of CN(Cc1cccc(Cl)c1Cl)C(=O)c1ccc(NC(=O)CC#N)cc1 and report it.
3.98 µM (active)

Look up Potency of CC(=O)Nc1ccc(Nc2nnc(-c3ccc(C)c(S(=O)(=O)NCC4CCCO4)c3)c3ccccc23)cc1 (stereo unspecified) and report it.
inactive

Look up Potency of CC(=O)/C=C/c1ccc2ccccc2n1 and report it.
12.6 µM (active)

Look up Potency of O=C(/C=C/c1cccnc1)c1ccc(O)cc1 and report it.
15.8 µM (active)

Look up Potency of Cc1cc(=O)n2nc(N3CCC(C(=O)NCCc4ccc(Cl)cc4)CC3)sc2n1 and report it.
12.6 µM (active)

Look up Potency of Fc1cc2nc(-c3ccncc3)[nH]c2cc1F and report it.
10 µM (active)

Look up Potency of CC(C)C[C@H](NC(=O)c1[nH]cnc1C(=O)N[C@@H](Cc1ccccc1)C(=O)OC(C)(C)C)C(=O)OC(C)(C)C and report it.
6.31 µM (active)

Look up Potency of CC(C)(C)c1cc(NC(=O)CCl)n(-c2ccccc2)n1 and report it.
12.6 µM (active)

Look up Potency of COc1ccc(S(=O)(=O)NCc2ccco2)cc1-c1nnc2c3ccccc3c(C)nn12 and report it.
11.2 µM (active)

Look up Potency of Cc1cc(=O)n2nc(N3CCC(C(=O)NCc4ccc(Cl)cc4)CC3)sc2n1 and report it.
12.6 µM (active)

Look up Potency of O=C(CC(SCCO)c1ccc(F)cc1)c1ccco1 (stereo unspecified) and report it.
inactive

* * *

experiment_notes: Confirmation screen for delayed death inhibitors of the malarial parasite plastid, 48 hour incubation; also: nearly all actives have a fitted effect of over 65% in size
test_settings: P. falciparum-infected erythrocytes, luciferase growth; series mostly up to 28.7 µM
Hit rate of the full screen: of about 2,300 compounds, about 1,200 (52%) were called active. Roughly 34% stayed inconclusive and do not appear here. Calls follow the shape of the dose curve; as a rule, active = well fitted inhibition curve with a large enough effect; inconclusive = small, poorly fitted or top-dose-only effect, or effect the other way; inactive = no such curve, though single readings can be large or run the other way. The set was probably picked from earlier hits. This is one part of the list.
Tick one outcome: active, inactive

Field: example entries. Status: answers known.
molecule	group
O=c1c(Cl)c(Cl)cnn1Cc1nnc(-c2ccc(Cl)cc2)o1	active
CC1=C(C(=O)NC2CC(C)(C)Cc3c2cnn3-c2ccc(C)cc2)OCCO1 (stereo not given)	active
O=c1[nH]c(NCc2ccccc2)nc2c1CCC2	inactive
CCOCCCNC(=S)N1CCN(c2nc(-c3ccccc3)cs2)CC1	active
CCCN(CCC)CCNC(=O)C1c2ccccc2C(=O)N2CCc3ccccc3C12 (stereo not given)	inactive

Please state the recorded outcome for this molecule: CC(C)C[C@@H](NC(=O)[C@H](Cc1ccccc1)NC(=O)c1cnccn1)B(O)O
active

Please state the recorded outcome for this molecule: Cc1ccc(NC(=O)c2cc(S(=O)(=O)N3CCc4ccccc43)cn2C)cc1
active

Please state the recorded outcome for this molecule: COc1ccc(CCN2CCCn3c2nc2c3c(=O)n(Cc3ccccc3F)c(=O)n2C)cc1OC
active

Please state the recorded outcome for this molecule: Cc1cc(C)n2nc(SCC(=O)N3CCN(c4ccc(F)cc4)CC3)nc2n1
active

Please state the recorded outcome for this molecule: Cc1c(CC(=O)N2C[C@H]3C[C@@H](C2)c2cccc(=O)n2C3)c(=O)oc2cc3occ(C(C)(C)C)c3cc12
active

* * *

experiment_notes: Confirmation screen for delayed death inhibitors of the malarial parasite plastid, 48 hour incubation; also: nearly all actives have a fitted effect of over 65% in size; also: potency is read from the fitted curve at half-maximal effect
test_settings: P. falciparum-infected erythrocytes, luciferase growth; series mostly up to 28.7 µM
Out of some 2,300 compounds screened, about 1,200 (52%) were called active. Roughly 34% stayed inconclusive and do not appear here. So high a share suggests a set chosen from earlier hits. Some of the results follow.
property_label: Potency

// worked examples, Potency included
compound	Potency
O=C(CCC1CCCCC1)NCCN1C2=NC[C@H](Cc3ccccc3)N2C[C@H]1Cc1ccc(O)cc1	11.2 µM (active)
C[C@@H](CN1C2=NC[C@H](Cc3ccc(O)cc3)N2C[C@H]1Cc1ccc(O)cc1)NC(=O)CCC1CCCCC1	8.91 µM (active)
O=C(CCl)Nc1cccc(S(=O)(=O)NC2=NCCC2)c1	1.26 µM (active)
COc1cc(C2Oc3ccccc3C=C2[N+](=O)[O-])cc(OC)c1OC (stereo not given)	14.1 µM (active)

Please find the next compound below.
Look up Potency of O=C(CN1C2=NCCCN2c2ccccc21)c1ccc2c(c1)OCO2 and report it.
11.2 µM (active)

* * *

experiment_notes: Confirmation screen for delayed death inhibitors of the malarial parasite plastid, 48 hour incubation; also: nearly all actives have a fitted effect of over 65% in size
test_settings: P. falciparum-infected erythrocytes, luciferase growth; series mostly up to 28.7 µM
Screen size: about 2,300 compounds; about 1,200 (52%) were called active. Not shown: some 34% with an inconclusive outcome. Calls follow the shape of the dose curve; as a rule, active = well fitted inhibition curve with a large enough effect; inconclusive = small, poorly fitted or top-dose-only effect, or effect the other way; inactive = no such curve, though single readings can be large or run the other way. So high a share suggests a set chosen from earlier hits. Some of the results follow.
Tick one outcome: Y = active, N = inactive

compound	group
CCCN1C2=C(C(=O)CCC2)C(c2ccc(O)c(Br)c2)C2=C1CCCC2=O	Y
CC(=O)N1CCCN(C(=O)c2cc(COc3c(F)cccc3F)on2)CC1	N
CC(Oc1cccc(Cl)c1)C(=O)Nc1cc(S(=O)(=O)N2CCOCC2)ccc1N1CCCCC1 (configuration not stated)	Y
O=C(N/N=C/c1cccn1-c1ccc([N+](=O)[O-])cc1)c1cccnc1	Y
Nc1ccc(-c2c3ccc(=O)cc-3oc3cc(O)ccc23)c(C(=O)O)c1	N
CCOc1ccc(CCNC(=O)COC(=O)c2ccc(C)s2)cc1OCC	Y
COc1ccccc1CNC(=O)CCCn1nc(C)c2c(C)n(-c3ccccc3)nc2c1=O	Y
O=C(COc1ccccc1Cl)NC(=S)N1CCc2ccccc21	Y

Please state the recorded outcome for this compound: C=CCNC(=O)c1onc(CSc2ccc(Cl)cc2)c1C(=O)O
N

Please state the recorded outcome for this compound: Cc1ccc(C(=O)NCC(=O)NCCCc2ccccc2)s1
N

Please state the recorded outcome for this compound: Cc1ccc(C(=O)N/C(=C\c2ccc(-c3ccc(Cl)cc3)o2)C(=O)NCCCN(C)C)cc1
Y

* * *

experiment_notes: Confirmation screen for delayed death inhibitors of the malarial parasite plastid, 48 hour incubation; also: nearly all actives have a fitted effect of over 65% in size
test_settings: P. falciparum-infected erythrocytes, luciferase growth; series mostly up to 28.7 µM
About 1,200 (52%) of roughly 2,300 compounds were called active. Not shown: some 34% with an inconclusive outcome. The call rests on the fitted dose curve; in most records, active means well fitted inhibition curve with a large enough effect; inconclusive means small, poorly fitted or top-dose-only effect, or effect the other way; inactive means no such curve, though single readings can be large or run the other way. So high a share suggests a set chosen from earlier hits. This is one part of the list.
Tick one outcome: active, inactive

molecule	group
CCO[C@H]1OC(C(=O)N2CCN(Cc3ccc4c(c3)OCO4)CC2)=C[C@@H](c2ccc(C(F)(F)F)cc2)[C@@H]1CCCO	active
O=C(CCl)Nc1cccc(Oc2cnccn2)c1	active

Please state the recorded outcome for this molecule: CCN(C(=O)c1cc2c(=O)n3ccccc3nc2n1CCCOC)C1CCCCC1
active

Please state the recorded outcome for this molecule: COc1ccc(NS(=O)(=O)c2ccc(N3CCOCC3)c(NC(=O)c3ccc(OC)cc3)c2)cc1
active
